Origin of measurements: the DeepSol protein solubility set

- test summary: soluble on expression in E. coli; label from the status in PepcDB or PDB records
assay endpoint: soluble on expression in E. coli

The cases that follow already have their soluble on expression in E. coli on record.
- residue codes: "MGSMSMNAEQTVAELIARSNRLGSDPKNTNYAGGNTSAKGTDTDPVTGQPVELLWVKGSGGDLGTLTENGLAVLRLDRMRALVDVYPGVEREDEMVAAFDYCLHGRGGAAPSIDTAMHGLVDAAHVDHLHPDSGIALATAADGEALTKQIFGDRVVWVPWRRPGFQLGLDIADIKRRNPQAIGTILGGHGITAWGSTSAEAEAHSLEIIETAERYIAENGRPEPFLEHHHHHH"
  assay endpoint: "soluble on expression in E. coli"
  result: "not soluble"
- residue codes: "MSSFLRPAVSGQDPFTTGNYRAISSHLAITPPVSVVIPAMNEAENLPYVFKSLPDWIHEVVLVDGNSTDGTVEVARELWPDVKVVEQRGKGKGDALITGFEACTGDIIVMVDADGSADGQEIVSYVSALVSGADFAKGSRFANGGGTSDMTPIRKLGNRVLCAAVNAKFGARYTDLCYGYNAFWRHCLDQIDLDCTGFEVETLMNIRVVKAGLKVQEIPSHEYLRIHGASNLRAVRDGLRVLKVILKERSNRRALRSRPHAMQLNSGQGEVSLEHHHHHH"
  assay endpoint: "soluble on expression in E. coli"
  result: "soluble"
- residue codes: "MIKVALPKGRLFEETVDLLLKRGIIEKRIEEGRKLILEEGGITFFLVKPSDVPVYVESGVSDLGVCGYDVYLEKKPSVYRLMDLGIGFCRIAVAGKPESEEKYFSSTHISVATKYPNIAYEFFKKKGVKADIYYLNGSVELAPLVGLSDFILDLVQTGRTLKENGLIVIEEVGKSTAWLIANKDSFRIKNGQIMEFLSRLVQHNKDGLQVQGSSLEHHHHHH"
  assay endpoint: "soluble on expression in E. coli"
  result: "not soluble"
- residue codes: "TEELEKAYDSLKESEEHLRLTLEGSKAGMWMWDLRANWKITPQMNALLGRSESSPIKYEEFISMIHPEDQERVAQAWNKAIECKDFYDQEYRIFLPDGSIHWLSSKGSVIELHSGIRQLMGITTDIT"
  assay endpoint: "soluble on expression in E. coli"
  result: "not soluble"
- residue codes: "GLGEKKEGHFSALPSLPVGSHAKVSSPQPRGPRYAEGTFISDYSIAMDKIHQQDFVNWLLAQKGKKNDWKHNITQREARALELASQANRKEEEAVEPQSSPAKNPSDEDLLRDLLIQELLACLLDQTNLCRLRSR"
  assay endpoint: "soluble on expression in E. coli"
  result: "soluble"
- residue codes: "MDTVVMSWWDFGHLFAVAADRPVTFDGGSQNTPRAYWIGKALTTSNETLSRGILTMLSTSGDLAYETLDNYTDDSGKTAEILTATLGLPREEARAVMTGRYGLSDKEADSVLRYSHPAKPKPFVLVLSSDMLGKAPWWTYFGTWDFKKKTGSRLEHHHHHH"
  assay endpoint: "soluble on expression in E. coli"
  result: "not soluble"
- residue codes: "MLKAMEHPAYSQLRPVTPSAGVVLCPNPGYSSLEGTNSWVVRAEGDRCSIVIDPGPADEGHLNVLHGKAETVGLVLLTHRHHDHADGAERFRQLTGAAIRAQQAPYCHGGDVLRDGEIIAIDGVTPQLEVVFTPGHTSDSVCFFVWSGVPHESNLEGIITGDTIAGRHTTMISETDGDLGQYLNTLALLEKRGKGIALLPGHGPDGDDVASFAHWYIERRMQRLEQIKEAIAQRGADVPIKELIDAVYDDVDPVLRGAAEQSTRVALRYLAQQQ"
  assay endpoint: "soluble on expression in E. coli"
  result: "not soluble"

Please examine the following record next.
Answer with reported soluble on expression in E. coli of MNQWLKKKRESLGYTQESFAKEIGIAKTTYSSYEQGYRNPTVQTAKKMAKILQVPWTIFFDEEVLETYDF
not soluble
